- Experiment notes: Brain to plasma permeability coefficient, Kp in Wistar rat at 10 mg/kg, po after 1 hr by LC-MS/MS analysis
- Format: ADME, organism-based
Observation type: Kp at 1 h
Returns: the value as a bare number; no unit string appended.

Ask: Give the value of Kp at 1 h reported for the following: CCC(=O)c1sc(-c2ccc(Cl)cc2)c(C)c1-c1ccc(S(N)(=O)=O)cc1
Result: 4.63

----------
- Experiment notes: Unbound brain-to-plasma concentration ratio in Wistar rat at 10 mg/kg, po after 1 hr by LC-MS/MS analysis
- Assay type: ADME, organism-based
- Condition set: read-out: K(p,uu,brain)
Observation type: Kp uu at 1 h
Returns: the value as a bare number; no unit string appended.

Ask: Give the value of Kp uu at 1 h reported for the following: CCC(=O)c1sc(-c2ccc(Cl)cc2)c(C)c1-c1ccc(S(N)(=O)=O)cc1
Result: 0.56
